Attribute: IC50 (neutralization)
- subject.of.test: HIV-1 Env of isolate MGRM-D-028 (subtype D) (HIV-1)
- assay.protocol: cell-based or functional assay

>  <binder>
PGT-123 (antibody, V domains shown) VH: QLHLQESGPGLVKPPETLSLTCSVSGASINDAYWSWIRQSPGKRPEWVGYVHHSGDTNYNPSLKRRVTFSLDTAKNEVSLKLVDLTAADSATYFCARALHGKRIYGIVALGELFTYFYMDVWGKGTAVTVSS VL: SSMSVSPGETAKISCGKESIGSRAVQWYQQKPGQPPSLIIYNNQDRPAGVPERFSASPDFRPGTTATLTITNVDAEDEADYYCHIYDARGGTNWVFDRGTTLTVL

>  <readout.units>
mg/L

>  <value.modifier>
=

>  <IC50 (neutralization)>
0.132

$$$$
>  <binder>
PGT-137 (antibody, V domains shown) VH: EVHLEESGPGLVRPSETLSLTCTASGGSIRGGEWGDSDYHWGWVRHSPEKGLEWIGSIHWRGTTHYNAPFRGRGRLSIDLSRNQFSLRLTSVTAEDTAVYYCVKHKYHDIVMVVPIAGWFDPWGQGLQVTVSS VL: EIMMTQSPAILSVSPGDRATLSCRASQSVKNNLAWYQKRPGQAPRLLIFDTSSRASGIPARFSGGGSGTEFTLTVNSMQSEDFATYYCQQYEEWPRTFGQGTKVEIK

>  <readout.units>
mg/L

>  <value.modifier>
>

>  <IC50 (neutralization)>
50

$$$$
>  <binder>
PGT-126 (antibody, V domains shown) VH: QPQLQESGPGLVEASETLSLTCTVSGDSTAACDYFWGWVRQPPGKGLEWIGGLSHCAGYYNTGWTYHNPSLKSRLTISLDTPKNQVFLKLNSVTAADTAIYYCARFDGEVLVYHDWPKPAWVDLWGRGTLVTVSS VL: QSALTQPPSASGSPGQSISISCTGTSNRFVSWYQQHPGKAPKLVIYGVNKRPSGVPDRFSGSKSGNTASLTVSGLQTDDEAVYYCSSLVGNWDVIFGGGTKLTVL

>  <readout.units>
mg/L

>  <value.modifier>
>

>  <IC50 (neutralization)>
50

$$$$
>  <binder>
PGT-127 (antibody, V domains shown) VH: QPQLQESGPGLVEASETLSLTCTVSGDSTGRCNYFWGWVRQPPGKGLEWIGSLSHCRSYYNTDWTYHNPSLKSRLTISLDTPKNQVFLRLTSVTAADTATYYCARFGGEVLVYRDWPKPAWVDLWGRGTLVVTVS VL: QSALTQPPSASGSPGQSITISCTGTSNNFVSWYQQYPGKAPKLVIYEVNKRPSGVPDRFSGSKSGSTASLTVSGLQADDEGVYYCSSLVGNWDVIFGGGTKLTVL

>  <readout.units>
mg/L

>  <value.modifier>
>

>  <IC50 (neutralization)>
50

$$$$
>  <binder>
PGT-130 (antibody, V domains shown) VH: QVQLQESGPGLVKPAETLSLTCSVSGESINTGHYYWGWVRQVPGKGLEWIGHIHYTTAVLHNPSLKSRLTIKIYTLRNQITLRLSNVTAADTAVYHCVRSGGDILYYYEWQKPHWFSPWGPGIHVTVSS VL: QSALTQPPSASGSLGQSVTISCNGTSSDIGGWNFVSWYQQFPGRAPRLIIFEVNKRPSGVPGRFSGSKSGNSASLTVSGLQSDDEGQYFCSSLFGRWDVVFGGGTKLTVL

>  <readout.units>
mg/L

>  <value.modifier>
=

>  <IC50 (neutralization)>
0.825

$$$$
